The measurements presented in this section are drawn from patent US20160264649A1.

- assayed-system: HIV-1 Env of pseudovirus isolate MGRM-G-011 (subtype G) (HIV-1)
- assay-explanation: cell-based or functional assay
metric-name: IC50 (mg/L)
A number alone suffices; assume mg/L.

Prompt: State the recorded IC50 for this entry: PGT-126 (antibody, V domains shown) VH: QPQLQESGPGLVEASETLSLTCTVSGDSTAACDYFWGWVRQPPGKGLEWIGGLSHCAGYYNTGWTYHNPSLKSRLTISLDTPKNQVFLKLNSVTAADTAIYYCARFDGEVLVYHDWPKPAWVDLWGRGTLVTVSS VL: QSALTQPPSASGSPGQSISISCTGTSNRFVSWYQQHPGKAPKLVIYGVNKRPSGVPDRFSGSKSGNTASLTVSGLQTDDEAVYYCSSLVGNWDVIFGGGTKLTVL
Response: 7.32
